target: T1, recombinant human ErbB2 extracellular domain (ErbB2-ECD) (human, UniProt P04626 23-652); test: capture ELISA, recombinant ErbB2-ECD
T1 construct: extracellular domain; Coated on plates or used biotin-labeled in solution (capture ELISA); also called Human ErbB2-ECD; rhErbB2
parameter-measured: EC50 (nM)
# output: bare number, implied unit nM

binder	readout-unit	measured-number
5F12.v8 humanized antibody (antibody, V domains shown, VH.1/VL.v1, back mutations I37V/0) VH: EVQLVQSGAEVKKPGSSVKVSCKASGYTFTSYTMHWVRQAPGQGLEWIGYINPSSSYTNYNQNFKDRATLTADKSTSTAYMELSSLRSEDTAVYYCARASSYSLDYWGQGTLVTVSS VL: DIQMTQSPSSLSASVGDRVTITCKASQDINKYIAWYQHKPGKGPKLLIHSTSTLYPGIPSRFSGSGSGKDYTFTISSLQPEDIATYYCLQYDNLLWTFGQGTKVEIK	nM	0.018

Query: // query EC50 value for entry 5F12.v2 humanized antibody (antibody, V domains shown, VH.v1/VL.1, back mutations 0/H38Q) VH: EVQLVQSGAEVKKPGSSVKVSCKASGYTFTSYTMHWIRQAPGQGLEWIGYINPSSSYTNYNQNFKDRATLTADKSTSTAYMELSSLRSEDTAVYYCARASSYSLDYWGQGTLVTVSS VL: DIQMTQSPSSLSASVGDRVTITCKASQDINKYIAWYQQKPGKGPKLLIHSTSTLYPGIPSRFSGSGSGKDYTFTISSLQPEDIATYYCLQYDNLLWTFGQGTKVEIK
Response: 0.034

Query: // query EC50 value for entry 5F12.v10 humanized antibody (antibody, V domains shown, VH.3/VL.v1, back mutations A67V/0) VH: EVQLVQSGAEVKKPGSSVKVSCKASGYTFTSYTMHWIRQAPGQGLEWIGYINPSSSYTNYNQNFKDRVTLTADKSTSTAYMELSSLRSEDTAVYYCARASSYSLDYWGQGTLVTVSS VL: DIQMTQSPSSLSASVGDRVTITCKASQDINKYIAWYQHKPGKGPKLLIHSTSTLYPGIPSRFSGSGSGKDYTFTISSLQPEDIATYYCLQYDNLLWTFGQGTKVEIK
Response: 0.032

Data provenance: patent US20200002434A1
